System: Plasmodium berghei
protocol.notes: Luciferase/luciferin-expressing antifolate-resistant parasites were used to infect a culture of HepG2 cells that were pre-incubated with compounds. Infected hepatocytes emit light due to the luciferase reaction. Assay results are presented as the percent inhibition of light emission compared to control. […]
Assay type: functional
study.conditions: sporozoite, read-out: LUCIFERASE INFECTION ASSAY - IC90
Listing of entries alongside the reported IC90.

molecular.string | system.under.test | IC90
O=[N+]([O-])c1ccc(NN=C(Cc2ccccc2)Cc2ccccc2)c(S(=O)(=O)Nc2ccccc2Cl)c1 | Plasmodium berghei | > 10 µM
NC(=O)c1ccsc1NC(=O)Cc1coc2cc3c(cc12)CCC3 | Plasmodium berghei | 3.88 µM

Q: Write down measured IC90 (Plasmodium berghei) for this compound. "Cc1cc(C(=O)Cn2cnc3ccccc3c2=O)c(C)n1-c1ccccc1"
Ans: > 10 µM

---

Test system: Plasmodium berghei
protocol.notes: Luciferase/luciferin-expressing antifolate-resistant parasites were used to infect a culture of HepG2 cells that were pre-incubated with compounds. Infected hepatocytes emit light due to the luciferase reaction. Assay results are presented as the percent inhibition of light emission compared to control. […]
Assay type: functional
study.conditions: sporozoite, read-out: LUCIFERASE INFECTION ASSAY - IC90
measurement.type: IC90

compound | IC90
CCC(C)(C)c1ccc(Oc2ccc(NC(=O)CSc3nnc(-c4ccccc4)[nH]3)cc2)cc1 | 7.78 µM
Cc1noc2nc(C3CC3)cc(C(=O)Oc3ccc(N4CCCC4=O)cc3)c12 | > 10 µM
CN1/C(=C\C=N\NC(=O)c2cnccn2)C(C)(C)c2ccccc21 | > 10 µM
NC(=O)c1cccc(-c2cn3c(-c4ccccc4)cnc3cn2)c1 | > 10.5 µM
Cc1cnc(NC(=O)Cc2ccc3c(c2)CCC(C)(C)O3)s1 | 4.6 µM

Q: Assign IC90 to the following record: "O=C(Nc1ccc(I)cc1)C1CCN(C(=O)c2ccncc2)CC1"
Ans: 2.8 µM

Q: Assign IC90 to the following record: "O=C(CSc1nc2sc3c(c2c(=O)n1-c1cccc(C(F)(F)F)c1)CCCC3)NC12CC3CC(CC(C3)C1)C2"
Ans: 7.89 µM

Q: Assign IC90 to the following record: CN(C)C(CNC(=O)c1cc(C2CC2)nn1-c1ccccc1)Cc1ccccc1 (stereo not drawn)
Ans: > 10 µM

Q: Assign IC90 to the following record: Cc1cccc(C2NC(=O)NC3=C2C(=O)N(CCc2ccccc2)C3)c1 (stereo not drawn)
Ans: > 10 µM

Q: Assign IC90 to the following record: "O=C(c1cc(-c2ccccc2)n[nH]1)N1CCN(c2ccccc2F)CC1"
Ans: > 10 µM

Q: Assign IC90 to the following record: "Clc1cccc(Cl)c1/C=C/c1nc2ccccc2n1Cc1ccccc1"
Ans: > 8.7 µM

---

Listing of entries alongside the reported IC90.
Tested on: Plasmodium berghei
protocol.notes: Luciferase/luciferin-expressing antifolate-resistant parasites were used to infect a culture of HepG2 cells that were pre-incubated with compounds. Infected hepatocytes emit light due to the luciferase reaction. Assay results are presented as the percent inhibition of light emission compared to control. […]
Format: functional
study.conditions: sporozoite, read-out: LUCIFERASE INFECTION ASSAY - IC90

Some compounds with recorded IC90:
compound | IC90
COc1ccc(CCN(C)c2ccc(S(=O)(=O)N(C(C)C)C(C)C)cn2)cc1OC | > 10 µM
COC(=O)c1c(C)[nH]c(-c2nc(Nc3cccc(OC)c3)sc2C)c1C | > 10 µM
CC(=O)c1sc2sc(C#N)c(C)c2c1C | > 14 µM
CCOC(=O)c1c(C)[nH]c(C(=O)Nc2cccc(C)n2)c1C | > 10 µM
N#CC1C(=N)Oc2c(ccc3ccccc23)C1c1ccc(Cl)cc1 (configuration not stated) | > 9.92 µM
CCC(C)NC(=O)c1c(NC(=O)c2cccc(C)c2)nc2ccc(C)cn12 (configuration not stated) | 6.6 µM
CCN(CC)CCn1c(NC(=O)c2cc3c(s2)CCCC3)nc2ccccc21 | > 10 µM
Fc1ccc2[nH]cc(CCNc3nc(Cl)nc4nc[nH]c34)c2c1 | 4.27 µM
O=C(Nc1ccc(C(F)(F)F)cc1[N+](=O)[O-])c1ccccc1O | 3.69 µM
c1ccc(-c2cc3nc(NCC4CC4)nc(NCC4CCCCC4)c3s2)cc1 | 3.98 µM

Q: Assign IC90 to the following record: COc1ccc(C)cc1NC(=O)C(OC(=O)c1cccn1C)c1ccccc1 (configuration not stated)
Ans: > 10 µM

Q: Assign IC90 to the following record: "CCCCN(C)S(=O)(=O)c1ccc(NC(=O)c2ccc3nccnc3c2)cc1"
Ans: > 10 µM

Q: Assign IC90 to the following record: "Cc1ccc2nc(NC(=O)c3ccc(OCc4nccn4C)cc3)sc2c1"
Ans: > 10 µM

Q: Assign IC90 to the following record: "NC1=CC(=O)c2ccccc2C1=O"
Ans: > 19.1 µM

Q: Assign IC90 to the following record: "O=C(/C=C/c1ccccc1[N+](=O)[O-])OCc1nc2ccccc2s1"
Ans: > 10 µM

Q: Assign IC90 to the following record: "Cc1noc(C)c1-c1nccc2n[nH]c(-c3ccccc3)c12"
Ans: > 10 µM

Q: Assign IC90 to the following record: "N#CC(C#N)=NNc1cc(Cl)cc(Cl)c1"
Ans: 0.565 µM

Q: Assign IC90 to the following record: "COc1ccc(C(=O)Nc2nonc2-c2ccc(F)cc2)cc1Cl"
Ans: 3.66 µM

Q: Assign IC90 to the following record: "N#CC(Cc1cccc([N+](=O)[O-])c1)(c1ccccc1)c1ccccc1"
Ans: > 10 µM

The values you see were collected from ChEMBL document CHEMBL4483862.
